# procedure-summary: in vivo
# condition: dog, po, 0.2 mg/kg
observation-type: bioavailability (%)
Numeric answer only, unit % assumed.

Answered examples (3):
COc1ccc(-n2nc(C(N)=O)c3c2C(=O)N(c2ccc(C4(CN5CCCC5)CC4)cc2)CC3)cc1.O=C(O)C(F)(F)F ... 6
COc1ccc(N2N=C(S(C)(=O)=O)C3CCN(c4ccc(C5(CN6CCCC6)CC5)cc4)C(=O)C32)cc1.O=C(O)C(F)(F)F (centres undefined) ... 100
COc1ccc(-n2nc(S(C)(=O)=O)c3c2C(=O)N(c2ccc(C4(CN5CCOCC5)CC4)cc2)CC3)cc1.O=C(O)C(F)(F)F ... 61

Ask: Which bioavailability is reported for this compound? CNC1(c2ccc(N3CCc4c(C(N)=O)nn(-c5ccc(OC)cc5)c4C3=O)cc2)CC1.O=C(O)C(F)(F)F
Reply: 15

Ask: Requested field: bioavailability. Item: COc1ccc(-n2nc(C(N)=O)c3c2C(=O)N(c2ccc(C4(CC(N)=O)CC4)cc2)CC3)cc1.O=C(O)C(F)(F)F
Reply: 27

Ask: Could you tell me which bioavailability is on file for COc1ccc(-n2nc(C#N)c3c2C(=O)N(c2ccc(C4(CN(C)C)CC4)cc2)CC3)cc1.O=C(O)C(F)(F)F ?
Reply: 41

Ask: Returns the measured bioavailability for the input compound. Input: COc1ccc(-n2nc(C(N)=O)c3c2C(=O)N(c2ccc(C4(N(C)CCO)CC4)cc2)CC3)cc1.O=C(O)C(F)(F)F
Reply: 67

Ask: Need bioavailability of COc1ccc(-n2nc(C(N)=O)c3c2C(=O)N(c2ccc(C4(CN5CCCC5=O)CC4)cc2)CC3)cc1.O=C(O)C(F)(F)F , thanks.
Reply: 3.1

Ask: Field request: bioavailability | item: COc1ccc(-n2nc(S(C)(=O)=O)c3c2C(=O)N(c2ccc(C4(Cn5ccnc5C)CC4)cc2)CC3)cc1.O=C(O)C(F)(F)F
Reply: 0.2

----------
# procedure-summary: in vivo
# condition: dog, iv, 0.5 mg/kg
Listing: clearance of selected compounds
Reply with the number, then its unit.

Examples with their reported clearance follow.
COc1ccc(-n2nc(C(N)=O)c3c2C(=O)N(c2ccc(C4(CN5CCCC5)CC4)cc2)CC3)cc1.O=C(O)C(F)(F)F ... 28.3 mL/min/kg
COc1ccc(-n2nc(S(C)(=O)=O)c3c2C(=O)N(c2ccc(C4(CN5CCOCC5)CC4)cc2)CC3)cc1.O=C(O)C(F)(F)F ... 13.3 mL/min/kg
COc1ccc(N2N=C(S(C)(=O)=O)C3CCN(c4ccc(C5(CN6CCCC6)CC5)cc4)C(=O)C32)cc1.O=C(O)C(F)(F)F (stereo not given) ... 55 mL/min/kg
COc1ccc(-n2nc(C(N)=O)c3c2C(=O)N(c2ccc(N4CCCCC4=O)cc2)CC3)cc1 [APIXABAN] ... 0.333 mL/min/kg

Ask: For CNC1(c2ccc(N3CCc4c(C(N)=O)nn(-c5ccc(OC)cc5)c4C3=O)cc2)CC1.O=C(O)C(F)(F)F , what is its reported clearance?
Reply: 30 mL/min/kg

Ask: Quick one: clearance of COc1ccc(-n2nc(C(N)=O)c3c2C(=O)N(c2ccc(C4(N(C)CCO)CC4)cc2)CC3)cc1.O=C(O)C(F)(F)F ?
Reply: 20 mL/min/kg

Ask: Please give the measured clearance for this compound: COc1ccc(-n2nc(C(N)=O)c3c2C(=O)N(c2ccc(C4(CC(N)=O)CC4)cc2)CC3)cc1.O=C(O)C(F)(F)F
Reply: 8.17 mL/min/kg

Ask: Entry COc1ccc(-n2nc(C#N)c3c2C(=O)N(c2ccc(C4(CN(C)C)CC4)cc2)CC3)cc1.O=C(O)C(F)(F)F has what clearance?
Reply: 22.8 mL/min/kg

Ask: Field request: clearance | item: COc1ccc(-n2nc(C(N)=O)c3c2C(=O)N(c2ccc(C4(CN5CCCC5=O)CC4)cc2)CC3)cc1.O=C(O)C(F)(F)F
Reply: 4.17 mL/min/kg

Ask: What value of measured clearance is listed for COc1ccc(-n2nc(S(C)(=O)=O)c3c2C(=O)N(c2ccc(C4(Cn5ccnc5C)CC4)cc2)CC3)cc1.O=C(O)C(F)(F)F ?
Reply: 70 mL/min/kg

----------
# procedure-summary: in vivo
# condition: dog, po, 0.2 mg/kg
observation-type: half-life
Answer shape: numeric part, then the unit.

COc1ccc(-n2nc(C(N)=O)c3c2C(=O)N(c2ccc(C4(CN5CCCC5=O)CC4)cc2)CC3)cc1.O=C(O)C(F)(F)F ... 0.99 h

Ask: half-life lookup needed for COc1ccc(-n2nc(C(N)=O)c3c2C(=O)N(c2ccc(C4(CN5CCCC5)CC4)cc2)CC3)cc1.O=C(O)C(F)(F)F , thanks.
Reply: 4 h

Ask: Look at this compound and give its reported half-life. COc1ccc(-n2nc(C#N)c3c2C(=O)N(c2ccc(C4(CN(C)C)CC4)cc2)CC3)cc1.O=C(O)C(F)(F)F
Reply: 6.4 h

Ask: Sample CNC1(c2ccc(N3CCc4c(C(N)=O)nn(-c5ccc(OC)cc5)c4C3=O)cc2)CC1.O=C(O)C(F)(F)F — what was its half-life?
Reply: 1.6 h
